- target or test system: isolated recombinant JAK2 kinase domain (Homo sapiens (Human))
- method summary: JAK2 enzyme assay (Caliper LabChip, Ki)
- Format: biochemical
- assay setup: isolated recombinant JAK2 kinase domain, 0.2 nM enzyme, ATP 25 μM
pKi: −log10 of the molar value.

- compound: "CN1CCN(C(=O)Cn2cc(Nc3nc4c(N5CC6CCC(C5)N6C(=O)CC5CC5(F)F)cccn4n3)cn2)CC1 (stereo not shown)"
  pKi: 8.74
- compound: "CN1CCN(C(=O)Cn2cc(Nc3nc4c(N5CC6CCC(C5)N6Cc5ccccc5F)cccn4n3)cn2)CC1"
  pKi: 9.15
- compound: "O=C(Cn1cc(Nc2nc3c(N4CC5CCC(C4)N5C(=O)CCC(F)(F)F)cccn3n2)cn1)N1CCN(C2CCC2)CC1"
  pKi: 8.77
- compound: "CN1CCN(C(=O)Cn2cc(Nc3nc4c(N5CC6CCC(C5)N6S(=O)(=O)c5ccccc5)cccn4n3)cn2)CC1"
  pKi: 9.00
- compound: "CC(C(=O)N1CCN(C)CC1)n1cc(Nc2nc3c(N4CC5CCC(C4)N5C(=O)CCC(F)(F)F)cccn3n2)cn1 (stereo not shown) [Example 103]"
  pKi: 8.77
- compound: "CN1CCN(C(=O)Cn2cc(Nc3nc4c(N5C[C@H]6CC[C@@H](C5)[C@H]6N(C)C(=O)CC(F)(F)F)cccn4n3)cn2)CC1"
  pKi: 9.00
- compound: "CN(C)C(=O)CN1CCN(CC2CCN(C(=O)Cn3cc(Nc4nc5c(N6CC7CCC(C6)N7C(=O)CCC(F)(F)F)cccn5n4)cn3)CC2)CC1"
  pKi: 8.41
- compound: "CN1CCN(C(=O)Cn2cc(Nc3nc4c(N5CC6CCC(C5)N6S(=O)(=O)Cc5ccc(F)cc5)cccn4n3)cn2)CC1"
  pKi: 9.05
- compound: "CN1CCN(C(=O)Cn2cc(Nc3nc4c(N5CC6CCC(C5)N6S(=O)(=O)c5cccc(C#N)c5)cccn4n3)cn2)CC1"
  pKi: 8.96
- compound: "O=C(Cn1cc(Nc2nc3c(N4CC5CCC(C4)N5C(=O)[C@H]4C[C@H](C(F)(F)F)C4)cccn3n2)cn1)N1CCN(C2CSC2)CC1"
  pKi: 8.40

---

- target or test system: isolated recombinant JAK2 kinase domain (Homo sapiens (Human))
- method summary: JAK2 enzyme assay (Caliper LabChip, Ki)
- Assay type: biochemical
- assay setup: isolated recombinant JAK2 kinase domain, 0.2 nM enzyme, ATP 25 μM
pKi: −log10 of the molar value.
Entries and their measured pKi follow.

- smiles text: "CN1CCN(C(=O)Cn2cc(Nc3nc4c(N5C6CC5CN(C(=O)CCC(F)(F)F)C6)cccn4n3)cn2)CC1"
  comparator: "<"
  pKi: 6.49
- smiles text: "CN1CCN(C(=O)Cn2cc(Nc3nc4c(N5CC6CCC(C5)N6S(=O)(=O)c5ccc(Cl)cc5)cccn4n3)cn2)CC1"
  comparator: "="
  pKi: 9.10
- smiles text: "N#CC1(CNC2CCN(C(=O)Cn3cc(Nc4nc5c(N6CC7CCC(C6)N7C(=O)N6CC(C(F)(F)F)C6)cccn5n4)cn3)CC2)CC1"
  comparator: "="
  pKi: 9.10
- smiles text: "CN1CCN(C(=O)Cn2cc(Nc3nc4c(N5C[C@H]6CC[C@@H](C5)[C@H]6OCc5cnn(C)c5)cccn4n3)cn2)CC1"
  comparator: "="
  pKi: 8.30
- smiles text: "CN1CCN(C(=O)Cn2cc(Nc3nc4c(N5CC6CCC(C5)N6C(=O)c5cccc(C#N)c5)cccn4n3)cn2)CC1"
  comparator: "="
  pKi: 8.68

---

Measured pKi of individual entries
- target or test system: isolated recombinant JAK1 kinase domain (Homo sapiens (Human), UniProt P23458)
- Sequence (P23458 875-1153): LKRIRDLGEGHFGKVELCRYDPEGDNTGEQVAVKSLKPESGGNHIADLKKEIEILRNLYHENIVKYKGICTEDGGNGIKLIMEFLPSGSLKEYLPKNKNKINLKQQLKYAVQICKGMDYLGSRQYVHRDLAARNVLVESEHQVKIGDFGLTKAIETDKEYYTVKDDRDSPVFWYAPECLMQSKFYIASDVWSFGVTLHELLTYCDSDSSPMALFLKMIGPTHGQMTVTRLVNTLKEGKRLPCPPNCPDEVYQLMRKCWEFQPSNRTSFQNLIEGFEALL
- method summary: JAK1 enzyme assay (Caliper LabChip, Ki)
- Type: biochemical
- assay setup: isolated recombinant JAK1 kinase domain, 1.5 nM enzyme, ATP 25 μM
pKi: −log10 of the molar value.

- molecule: "CN1CCN(C(=O)Cn2cc(Nc3nc4c(N5CC6CCC(C5)N6S(=O)(=O)c5ccc(F)cc5)cccn4n3)cn2)CC1"
  pKi: 9.40
- molecule: "CN1CCN(C(=O)Cn2cc(Nc3nc4c(N5CC6CCC(C5)N6C(=O)c5ccc(Cl)cc5)cccn4n3)cn2)CC1"
  pKi: 8.51
- molecule: "COC(=O)C1C2CCC1CN(c1cccn3nc(Nc4cnn(CC(=O)N5CCN(C)CC5)c4)nc13)C2 (stereo not drawn)"
  pKi: 8.82

---

- target or test system: isolated recombinant JAK2 kinase domain (Homo sapiens (Human), UniProt O60674)
- Sequence (O60674 849-1124): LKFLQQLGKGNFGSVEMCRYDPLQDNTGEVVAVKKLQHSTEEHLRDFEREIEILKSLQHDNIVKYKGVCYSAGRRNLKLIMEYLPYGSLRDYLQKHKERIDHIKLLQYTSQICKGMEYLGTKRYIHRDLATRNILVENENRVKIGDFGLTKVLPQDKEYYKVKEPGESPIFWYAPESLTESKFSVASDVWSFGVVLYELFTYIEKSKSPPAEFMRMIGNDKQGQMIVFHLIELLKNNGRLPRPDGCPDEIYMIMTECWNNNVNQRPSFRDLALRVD
- method summary: JAK2 enzyme assay (Caliper LabChip, Ki)
- Format: biochemical
- assay setup: isolated recombinant JAK2 kinase domain, 0.2 nM enzyme, ATP 25 μM
pKi: −log10 of the molar value.
Below, each entry is listed with its recorded pKi.

- compound: "CN1CCN(C(=O)Cn2cc(Nc3nc4c(N5CC6COCC(C5)N6C(=O)CCC(F)(F)F)cccn4n3)cn2)CC1 [Example 130]"
  pKi: 7.58
- compound: "CN1CCN(C(=O)Cn2cc(Nc3nc4c(N5CC6CCC(C5)N6C(=O)Cc5ccc(F)cc5)cccn4n3)cn2)CC1 [Example 66]"
  pKi: 8.85
- compound: "CSc1ccc(S(=O)(=O)N2C3CCC2CN(c2cccn4nc(Nc5cnn(CC(=O)N6CCN(C)CC6)c5)nc24)C3)cc1 [Example 107]"
  pKi: 9.10
- compound: "CN1CCN(C(=O)Cn2cc(Nc3nc4c(N5CC6CCC(C5)N6S(=O)(=O)Cc5ccccc5)cccn4n3)cn2)CC1 [Example 108]"
  pKi: 8.57
- compound: "CC(CC(F)(F)F)C(=O)N1C2CCC1CN(c1cccn3nc(Nc4cnn(CC(=O)N5CCN(C)CC5)c4)nc13)C2 (stereo not shown) [Example 47]"
  pKi: 8.70
- compound: "CN1CCN(C(=O)Cn2cc(Nc3nc4c(N5CC6CCC(C5)N6C(=O)CC(N)C(F)(F)F)cccn4n3)cn2)CC1 (stereo not shown) [Example 102]"
  pKi: 8.10
- compound: "O=C(Cn1cc(Nc2nc3c(N4CC5CCC(C4)N5C(=O)CCC(F)(F)F)cccn3n2)cn1)N1CCC(N2CCn3nccc3C2)CC1 [Example 179]"
  pKi: 8.89
- compound: "CC(C(=O)N1CCN(C)CC1)n1cc(Nc2nc3c(N4CC5CCC(C4)N5C(=O)C4CC(C(F)(F)F)C4)cccn3n2)cn1 (stereo not shown) [Example 126]"
  pKi: 8.80
- compound: "COC(=O)N1CCN(CC2CCN(C(=O)Cn3cc(Nc4nc5c(N6CC7CCC(C6)N7C(=O)CCC(F)(F)F)cccn5n4)cn3)CC2)CC1 [Example 79]"
  pKi: 8.80
- compound: "O=C(Cn1cc(Nc2nc3c(N4CC5CCC(C4)N5C(=O)CCC(F)(F)F)cccn3n2)cn1)N1CCC(CN2CCOCC2)CC1 [Example 41]"
  pKi: 8.34
- compound: "CN1CCN(C(=O)Cn2cc(Nc3nc4c(N5CC6CCC(C5)N6S(=O)(=O)c5ccc(C(F)(F)F)cc5)cccn4n3)cn2)CC1 [Example 135]"
  pKi: 9.40
- compound: "CN1CCN(C(=O)Cn2cc(Nc3nc4c(N5CC6CCC(C5)N6Cc5ccc(C#N)cc5)cccn4n3)cn2)CC1 [Example 56]"
  pKi: 8.29
- compound: "CN1CCN(C(=O)Cn2cc(Nc3nc4c(N5CC6CCC(C5)N6Cc5cnc(CC(F)(F)F)s5)cccn4n3)cn2)CC1 [Example 101]"
  pKi: 7.99
- compound: "CN1CCN(C(=O)Cn2cc(Nc3nc4c(N5CC6CCC(C5)N6C(=O)c5cncs5)cccn4n3)cn2)CC1 [Example 78]"
  pKi: 8.89
- compound: "CN1CCN(C(=O)Cn2cc(Nc3nc4c(N5CC6CCC(C5)N6C(=O)C5CCSC5)cccn4n3)cn2)CC1 (stereo not shown) [Example 50]"
  pKi: 8.82
- compound: "O=C(Cn1cc(Nc2nc3c(N4CC5CCC(C4)N5C(=O)CCC(F)(F)F)cccn3n2)cn1)N1CCC(N2CCOCC2)CC1 [Example 74]"
  pKi: 8.57

---

- target or test system: isolated recombinant JAK1 kinase domain (Homo sapiens (Human), UniProt P23458)
- method summary: JAK1 enzyme assay (Caliper LabChip, Ki)
- Type: biochemical
- assay setup: isolated recombinant JAK1 kinase domain, 1.5 nM enzyme, ATP 25 μM
Returns the class for an entry based on its Ki. Class ranges: one = under 0.9 nM, two = from 0.9 nM up to 2 nM, three = 2 nM and over

- compound: "CN1CCN(C(=O)Cn2cc(Nc3nc4c(N5C[C@H]6CC[C@@H](C5)[C@H]6OCc5ccc(F)nc5)cccn4n3)cn2)CC1"
  assigned category: "one"
- compound: "CN1CCN(C(=O)Cn2cc(Nc3nc4c(N5C[C@H]6CC[C@@H](C5)[C@H]6N(C)CCC(F)(F)F)cccn4n3)cn2)CC1"
  assigned category: "three"
- compound: "CC(C(=O)N1CCN(C)CC1)n1cc(Nc2nc3c(N4CC5CCC(C4)N5C(=O)CCC(F)(F)F)cccn3n2)cn1 (stereo not drawn) [Example 103]"
  assigned category: "two"
- compound: "CC(C(=O)N1CCN(C)CC1)n1cc(Nc2nc3c(N4CC5CCC(C4)N5C(=O)C4CC(C(F)(F)F)C4)cccn3n2)cn1 (stereo not drawn) [Example 126]"
  assigned category: "three"
- compound: "CN1CCN(C(=O)Cn2cc(Nc3nc4c(N5CC6CCCC(C5)N6C(=O)CC5CC(F)(F)C5)cccn4n3)cn2)CC1"
  assigned category: "one"
- compound: "CN1CCN(C(=O)Cn2cc(Nc3nc4c(N5CC6CCC(C5)N6S(=O)(=O)c5ccccc5C(F)(F)F)cccn4n3)cn2)CC1"
  assigned category: "two"
- compound: "CSc1ccc(C(=O)N2C3CCC2CN(c2cccn4nc(Nc5cnn(CC(=O)N6CCN(C)CC6)c5)nc24)C3)cc1"
  assigned category: "two"
- compound: "CN1CCN(C(=O)Cn2cc(Nc3nc4c(N5CC6CCC(C5)N6S(=O)(=O)c5cccs5)cccn4n3)cn2)CC1"
  assigned category: "one"
- compound: "CN1CCN(C(=O)Cn2cc(Nc3nc4c(N5CC6CCC(C5)N6C(=O)N5CC(O)(C(F)(F)F)C5)cccn4n3)cn2)CC1"
  assigned category: "one"
- compound: "CC(C(=O)N1CCN(C)CC1)n1cc(Nc2nc3c(N4CC5CCC(C4)N5C(=O)C4CC(C(F)(F)F)C4)cccn3n2)cn1 (stereo not drawn) [Example 124]"
  assigned category: "two"
- compound: "CN1CCN(C(=O)Cn2cc(Nc3nc4c(N5CC6CC(C5)N6Cc5ccc(Cl)cc5)cccn4n3)cn2)CC1"
  assigned category: "three"
- compound: "CN1CCN(C(=O)Cn2cc(Nc3nc4c(N5CC6CCC(C5)N6C(=O)CC(N)C(F)(F)F)cccn4n3)cn2)CC1 (stereo not drawn)"
  assigned category: "three"
- compound: "CSc1cccc(C(=O)N2C3CCC2CN(c2cccn4nc(Nc5cnn(CC(=O)N6CCN(C)CC6)c5)nc24)C3)c1"
  assigned category: "two"
- compound: "O=C(Cn1cc(Nc2nc3c(N4CC5CCC(C4)N5C(=O)N4CC(C(F)(F)F)C4)cccn3n2)cn1)N1CCC(CN2CCOCC2)CC1"
  assigned category: "one"
- compound: "CN1CCN(C(=O)Cn2cc(Nc3nc4c(N5CC6CCC(C5)N6Cc5cccc(C#N)c5)cccn4n3)cn2)CC1"
  assigned category: "two"
- compound: "CN1CCN(C(=O)Cn2cc(Nc3nc4c(N5CC6CCC(C5)N6C(=O)C5CC6CCC5O6)cccn4n3)cn2)CC1 (stereo not drawn)"
  assigned category: "two"
- compound: "CN1CCN(C(=O)Cn2cc(Nc3nc4c(N5CC6CCC(C5)N6C(=O)N5CC(F)C5)cccn4n3)cn2)CC1"
  assigned category: "one"
- compound: "CN1CCN(C(=O)Cn2cc(Nc3nc4c(N5CC6CCC(C5)N6C(=O)Cc5ccccc5F)cccn4n3)cn2)CC1"
  assigned category: "two"
